# credit: ChEMBL document CHEMBL4382240

Property: inhibition; scope: individual molecules
biological target: UniProt:P05067; assay: Inhibition of human amyloid beta (1 to 42) self-induced aggregation at 25 uM after 24 hrs by Thioflavin T based fluorometric assay relative to control
Field format: number, assumed %, no unit text.

Some molecules with recorded inhibition:
[
  {
    "smiles-data": "CN(CCCNC(=O)c1cc(O)c(C(=O)NCCCN(C)Cc2ccccc2)cc1O)Cc1ccccc1",
    "system": "UniProt:P05067",
    "units-text": "%",
    "inhibition": 85
  },
  {
    "smiles-data": "CN(CCCCNC(=O)c1cc(O)c(C(=O)NCCCCN(C)Cc2ccccc2)cc1O)Cc1ccccc1",
    "system": "UniProt:P05067",
    "units-text": "%",
    "inhibition": 90
  },
  {
    "smiles-data": "COc1ccccc1CN(C)CCCNC(=O)c1cc(O)c(C(=O)NCCCN(C)Cc2ccccc2OC)cc1O",
    "system": "UniProt:P05067",
    "units-text": "%",
    "inhibition": 93.5
  }
]

Request: Endpoint output: inhibition of COc1ccccc1CN(C)CCCCNC(=O)c1cc(O)c(C(=O)NCCCCN(C)Cc2ccccc2OC)cc1O . Value?
Response: 98.6

Request: Endpoint output: inhibition of CCN(CCCNC(=O)c1cc(O)c(C(=O)NCCCN(CC)Cc2ccccc2)cc1O)Cc1ccccc1 . Value?
Response: 81

Request: Endpoint output: inhibition of CN(CCCCCCNC(=O)c1cc(O)c(C(=O)NCCCCCCN(C)Cc2ccccc2)cc1O)Cc1ccccc1 . Value?
Response: 99.8

Request: Endpoint output: inhibition of COc1ccccc1CN(C)CCCCCCNC(=O)c1cc(O)c(C(=O)NCCCCCCN(C)Cc2ccccc2OC)cc1O . Value?
Response: 99.7

Request: Endpoint output: inhibition of O=C(O)c1cc(O)c(C(=O)O)cc1O . Value?
Response: 4.7

Request: Endpoint output: inhibition of CCN(CCCCNC(=O)c1cc(O)c(C(=O)NCCCCN(CC)Cc2ccccc2N(C)C)cc1O)Cc1ccccc1N(C)C . Value?
Response: 99.7

* * *

assay: Inhibition of Cu2+ induced human amyloid beta (1 to 42) aggregation at 25 uM after 24 hrs by Thioflavin T based fluorometric assay relative to control
Property: inhibition; scope: individual molecules
Field format: number, assumed %, no unit text.

Some molecules with recorded inhibition:
[
  {
    "smiles-data": "CN(CCCCNC(=O)c1cc(O)c(C(=O)NCCCCN(C)Cc2ccccc2)cc1O)Cc1ccccc1",
    "units-text": "%",
    "inhibition": 77.6
  },
  {
    "smiles-data": "CCN(CCCNC(=O)c1cc(O)c(C(=O)NCCCN(CC)Cc2ccccc2)cc1O)Cc1ccccc1",
    "units-text": "%",
    "inhibition": 57.6
  },
  {
    "smiles-data": "CCN(CCCCCCNC(=O)c1cc(O)c(C(=O)NCCCCCCN(CC)Cc2ccccc2OC)cc1O)Cc1ccccc1OC",
    "units-text": "%",
    "inhibition": 89.9
  },
  {
    "smiles-data": "CCN(CCCNC(=O)c1cc(O)c(C(=O)NCCCN(CC)Cc2ccccc2OC)cc1O)Cc1ccccc1OC",
    "units-text": "%",
    "inhibition": 88.8
  },
  {
    "smiles-data": "CN(CCCCCCNC(=O)c1cc(O)c(C(=O)NCCCCCCN(C)Cc2ccccc2)cc1O)Cc1ccccc1",
    "units-text": "%",
    "inhibition": 89.1
  },
  {
    "smiles-data": "COc1ccccc1CN(C)CCCCNC(=O)c1cc(O)c(C(=O)NCCCCN(C)Cc2ccccc2OC)cc1O",
    "units-text": "%",
    "inhibition": 65.4
  }
]

Request: Endpoint output: inhibition of CCN(CCCCNC(=O)c1cc(O)c(C(=O)NCCCCN(CC)Cc2ccccc2)cc1O)Cc1ccccc1 . Value?
Response: 84.1

Request: Endpoint output: inhibition of O=C(NCCCCN1CCOc2ccccc2C1)c1cc(O)c(C(=O)NCCCCN2CCOc3ccccc3C2)cc1O . Value?
Response: 74

Request: Endpoint output: inhibition of CCN(CCCCNC(=O)c1cc(O)c(C(=O)NCCCCN(CC)Cc2ccccc2OC)cc1O)Cc1ccccc1OC . Value?
Response: 71.7

Request: Endpoint output: inhibition of O=C(O)c1cc(O)c(C(=O)O)cc1O . Value?
Response: 8.1

Request: Endpoint output: inhibition of COc1ccccc1CN(C)CCCNC(=O)c1cc(O)c(C(=O)NCCCN(C)Cc2ccccc2OC)cc1O . Value?
Response: 70.4

Request: Endpoint output: inhibition of COc1cc(/C=C/C(=O)CC(=O)/C=C/c2ccc(O)c(OC)c2)ccc1O . Value?
Response: 66

Request: Endpoint output: inhibition of CCN(CCCCCCNC(=O)c1cc(O)c(C(=O)NCCCCCCN(CC)Cc2ccccc2)cc1O)Cc1ccccc1 . Value?
Response: 74.3

Request: Endpoint output: inhibition of COc1ccccc1CN(C)CCCCCCNC(=O)c1cc(O)c(C(=O)NCCCCCCN(C)Cc2ccccc2OC)cc1O . Value?
Response: 85.3

Request: Endpoint output: inhibition of CN(CCCNC(=O)c1cc(O)c(C(=O)NCCCN(C)Cc2ccccc2)cc1O)Cc1ccccc1 . Value?
Response: 81.2

Request: Endpoint output: inhibition of CCN(CCCCNC(=O)c1cc(O)c(C(=O)NCCCCN(CC)Cc2ccc(N(C)C)cc2)cc1O)Cc1ccc(N(C)C)cc1 . Value?
Response: 82.5

Request: Endpoint output: inhibition of CCN(CCCCNC(=O)c1cc(O)c(C(=O)NCCCCN(CC)Cc2ccccc2N(C)C)cc1O)Cc1ccccc1N(C)C . Value?
Response: 69.4

Request: Endpoint output: inhibition of CCOC(=O)c1cc(O)c(C(=O)OCC)cc1O . Value?
Response: 30.7

* * *

assay: Anti-inflammatory activity in […] cells assessed as inhibition of LPS-stimulated TNFalpha release at 2.5 uM preincubated for 30 mins followed by LPS stimulation and measured after 24 hrs by ELISA relative to control; format: functional; conditions: BV-2
Could you label it Yes if measured inhibition at 2.5 µM is 20% or higher, and No otherwise?

Past entries and their recorded results:
[
  {
    "compound": "O=C(O)c1cc(O)c(C(=O)O)cc1O",
    "discrete-label": "No"
  },
  {
    "compound": "CCN(CCCCCCNC(=O)c1cc(O)c(C(=O)NCCCCCCN(CC)Cc2ccccc2OC)cc1O)Cc1ccccc1OC",
    "discrete-label": "Yes"
  },
  {
    "compound": "CCN(CCCCNC(=O)c1cc(O)c(C(=O)NCCCCN(CC)Cc2ccccc2OC)cc1O)Cc1ccccc1OC",
    "discrete-label": "Yes"
  },
  {
    "compound": "CC(C(=O)O)c1ccc(-c2ccccc2)c(F)c1 (stereo unspecified)",
    "discrete-label": "No"
  },
  {
    "compound": "COc1ccccc1CN(C)CCCCNC(=O)c1cc(O)c(C(=O)NCCCCN(C)Cc2ccccc2OC)cc1O",
    "discrete-label": "Yes"
  }
]

Turning to the following compound.
Request: Entry CCN(CCCNC(=O)c1cc(O)c(C(=O)NCCCN(CC)Cc2ccccc2OC)cc1O)Cc1ccccc1OC : is its inhibition at 2.5 µM no less than 20%?
Response: Yes

* * *

target: Amyloid-beta precursor protein (Homo sapiens, UniProt P05067); experiment: Disaggregation of self-induced preformed fibrils of human amyloid beta (1 to 42) at 25 uM after 24 hrs by Thioflavin T based fluorometric assay relative to control
Sequence (P05067 whole entry): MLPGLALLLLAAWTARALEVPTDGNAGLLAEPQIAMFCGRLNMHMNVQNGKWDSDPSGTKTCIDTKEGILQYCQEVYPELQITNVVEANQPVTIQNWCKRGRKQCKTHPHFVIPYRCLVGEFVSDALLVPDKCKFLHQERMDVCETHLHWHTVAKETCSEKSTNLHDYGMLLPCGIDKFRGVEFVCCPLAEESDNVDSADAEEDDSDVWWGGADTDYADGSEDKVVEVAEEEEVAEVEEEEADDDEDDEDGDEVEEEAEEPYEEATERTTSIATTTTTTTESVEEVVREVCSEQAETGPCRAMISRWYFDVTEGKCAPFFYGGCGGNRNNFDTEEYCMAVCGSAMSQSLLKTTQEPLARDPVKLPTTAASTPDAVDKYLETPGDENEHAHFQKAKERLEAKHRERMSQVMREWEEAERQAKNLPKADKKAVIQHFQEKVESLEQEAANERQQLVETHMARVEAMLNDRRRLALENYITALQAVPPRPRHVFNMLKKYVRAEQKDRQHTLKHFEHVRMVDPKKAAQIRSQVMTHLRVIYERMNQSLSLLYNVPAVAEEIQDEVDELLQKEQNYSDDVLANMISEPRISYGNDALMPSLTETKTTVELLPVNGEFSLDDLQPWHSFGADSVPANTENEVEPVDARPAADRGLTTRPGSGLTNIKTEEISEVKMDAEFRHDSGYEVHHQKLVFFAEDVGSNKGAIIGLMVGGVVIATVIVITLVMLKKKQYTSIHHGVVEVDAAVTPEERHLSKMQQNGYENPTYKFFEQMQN
Property: Activity; scope: individual compounds

Some compounds with recorded Activity:
[
  {
    "smiles-data": "CN(CCCCNC(=O)c1cc(O)c(C(=O)NCCCCN(C)Cc2ccccc2)cc1O)Cc1ccccc1",
    "result": "67.7%"
  },
  {
    "smiles-data": "CCN(CCCCCCNC(=O)c1cc(O)c(C(=O)NCCCCCCN(CC)Cc2ccccc2OC)cc1O)Cc1ccccc1OC",
    "result": "83.8%"
  },
  {
    "smiles-data": "CCN(CCCCNC(=O)c1cc(O)c(C(=O)NCCCCN(CC)Cc2ccc(N(C)C)cc2)cc1O)Cc1ccc(N(C)C)cc1",
    "result": "60.4%"
  }
]

Next compound, Activity to be filled in.
Request: Notebook: pull reported Activity for Amyloid-beta precursor protein (Homo sapiens, UniProt P05067), entry O=C(NCCCCN1CCOc2ccccc2C1)c1cc(O)c(C(=O)NCCCCN2CCOc3ccccc3C2)cc1O
Response: 67.4%

* * *

experiment: Cytotoxicity against […] cells assessed as decrease in cell viability up to 10 uM preincubated for 30 mins followed by LPS stimulation and measured after 24 hrs by MTT assay; assay type: cell-based
reported-metric: Activity

Some compounds with recorded Activity:
[
  {
    "compound": "CCN(CCCNC(=O)c1cc(O)c(C(=O)NCCCN(CC)Cc2ccccc2OC)cc1O)Cc1ccccc1OC",
    "result": "Non-Toxic"
  },
  {
    "compound": "CCN(CCCCCCNC(=O)c1cc(O)c(C(=O)NCCCCCCN(CC)Cc2ccccc2OC)cc1O)Cc1ccccc1OC",
    "result": "Non-Toxic"
  },
  {
    "compound": "CC(C(=O)O)c1ccc(-c2ccccc2)c(F)c1 (stereo unspecified)",
    "result": "Non-Toxic"
  },
  {
    "compound": "COc1ccccc1CN(C)CCCCNC(=O)c1cc(O)c(C(=O)NCCCCN(C)Cc2ccccc2OC)cc1O",
    "result": "Non-Toxic"
  },
  {
    "compound": "CCN(CCCCNC(=O)c1cc(O)c(C(=O)NCCCCN(CC)Cc2ccccc2OC)cc1O)Cc1ccccc1OC",
    "result": "Non-Toxic"
  }
]

Request: Endpoint output: Activity of O=C(O)c1cc(O)c(C(=O)O)cc1O . Value?
Response: Non-Toxic
